- target.entity: T1, cTnI quality control product recombinant protein (human, UniProt P19429 2-210, limits assumed)
- T1 construct: treated as the same molecule; also called cTnI antigen; cardiac troponin I
- experimental.protocol: AMC sensor, antibody immobilised, cTnI in solution
- Method: Operating process: it is equilibrated in Buffer 1 (PBST) for 60 s, the antibody is immobilized in an antibody solution for 300 s, incubated in Buffer 2 (PBST) for 180 s, bound in antigen solution for 420 s, dissociated in the Buffer 2 for 1200 s, 10 mM of GLY solution with pH 1.69 and Buffer 3 are used for sensor regeneration, and data is output. KD represents an equilibrium dissociation constant, namely the affinity; Kon represents a binding rate; and Kd is represents a dissociation rate.
List of pKd values.
As a rule, pKd stands for the negative log10 of the concentration, concentration in M.

binder	pKd
Mutation 1-27 (antibody, V domains shown, Built as m8) VH: EVQLQQSGPELVKPGASVKMSCKASGYTFTLYVVHWVKQKPGQGLEWIGYIYPYLDGTKYNEKFKGKATLTVDKSSSTAFMELSSLTSEDSAVYYCARSGYGQYGLAWLAYWGQGTLVTVSA VL: QAVVIQESALTTSPGETVTLTCRSSTGAVTTSNYANWVQEKPDHLFTGLIGGSQNRAPGVPARFSGSLIGDKAALTITGAQTEDEAIYFCALVYSNHWVFGGGTKLTVLG	9.45

# pKd lookup, item Mutation 1-47 (antibody, V domains shown, Built as m8) VH: EVQLQQSGPELVKPGASVKMSCKASGYTFTLYVIHWVKQKPGQGLEWIGYINPYLDGTKYNEKFKGKATLTVDKSSSTAFMELSSLTSEDSAVYYCARSGYGGYGLAWLAYWGQGTLVTVSA VL: QAVVIQESALTTSPGETVTLTCRSSTGAATTSQYANWVQEKPDHLFTGLIGGSQNRAPGVPARFSGSLIGDKAALTITGAQTEDEAIYFCALVYSNHWVFGGGTKLTVLG
8.52

meta.source: patent US20220033484A1
